// data source = ChEMBL document CHEMBL1147732

Consider the following IC50 values measured on Acetylcholinesterase (Bos taurus, UniProt P23795).
Answer format reminder: number followed by unit.

| Structure Notation | Subject Of Test | Endpoint Value |
| --- | --- | --- |
| O=C(CCCCCNc1c2c(nc3cc(Cl)cc(Cl)c13)CCCC2)NCCc1c[nH]c2ccccc12 | Acetylcholinesterase (Bos taurus, UniProt P23795) | 3.5 nM |
| COc1ccc2[nH]cc(CCNC(=O)CCCCCNc3c4c(nc5ccccc35)CCCC4)c2c1 | Acetylcholinesterase (Bos taurus, UniProt P23795) | 9 nM |
| COc1ccc2[nH]cc(CCNC(=O)CCCCCCNc3c4c(nc5ccccc35)CCCC4)c2c1 | Acetylcholinesterase (Bos taurus, UniProt P23795) | 2.3 nM |
| O=C(CCCCCCNc1c2c(nc3cc(Cl)ccc13)CCCC2)NCCc1c[nH]c2ccccc12 | Acetylcholinesterase (Bos taurus, UniProt P23795) | 0.2 nM |

Hey, Acetylcholinesterase (Bos taurus, UniProt P23795) data for COc1ccc2[nH]cc(CCNC(=O)CCCCCCNc3c4c(nc5cc(Cl)cc(Cl)c35)CCCC4)c2c1 : IC50 came out at 5 nM

---

Target: Acetylcholinesterase (Bos taurus, UniProt P23795)
Sequence (P23795 whole entry): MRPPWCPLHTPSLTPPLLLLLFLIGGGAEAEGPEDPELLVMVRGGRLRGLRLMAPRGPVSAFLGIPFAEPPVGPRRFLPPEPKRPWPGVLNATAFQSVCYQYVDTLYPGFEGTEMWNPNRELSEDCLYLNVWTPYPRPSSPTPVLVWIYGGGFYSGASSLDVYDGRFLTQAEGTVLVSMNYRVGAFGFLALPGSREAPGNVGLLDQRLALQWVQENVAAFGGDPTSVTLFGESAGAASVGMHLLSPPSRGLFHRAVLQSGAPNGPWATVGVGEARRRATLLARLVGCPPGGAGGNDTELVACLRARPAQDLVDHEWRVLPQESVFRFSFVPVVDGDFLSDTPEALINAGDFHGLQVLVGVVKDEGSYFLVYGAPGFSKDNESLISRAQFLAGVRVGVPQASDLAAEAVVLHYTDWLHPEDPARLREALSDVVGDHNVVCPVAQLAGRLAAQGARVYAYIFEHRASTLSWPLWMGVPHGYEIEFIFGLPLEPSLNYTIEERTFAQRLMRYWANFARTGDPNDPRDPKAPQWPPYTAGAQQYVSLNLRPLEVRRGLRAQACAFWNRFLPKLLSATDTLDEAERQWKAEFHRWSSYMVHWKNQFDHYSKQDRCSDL
Listed below: pIC50 values for each entry.
API: returns pIC50 as number; meaning -log10 of concentration in mol/L.

Solved entries:
| Structure Notation | pIC50 |
| --- | --- |
| O=C(CCCCCNc1c2c(nc3cc(Cl)ccc13)CCCC2)NCCc1c[nH]c2ccccc12 | 8.70 |
| COc1ccc2[nH]cc(CCNC(=O)CCCCCNc3c4c(nc5cc(Cl)ccc35)CCCC4)c2c1 | 7.92 |
| O=C(CCCCCCNc1c2c(nc3ccccc13)CCCC2)NCCc1c[nH]c2ccccc12 | 9.00 |
| O=C(CCCCCNc1c2c(nc3ccccc13)CCCC2)NCCc1c[nH]c2ccccc12 | 8.40 |
| COc1ccc2[nH]cc(CCNC(=O)CCCCCNc3c4c(nc5cccc(Cl)c35)CCCC4)c2c1 | 7.60 |

Entry O=C(CCCCCNc1c2c(nc3ccccc13)CCCC2)NCCc1c[nH]c2ccc(O)cc12 ; pIC50 = 7.46

Documented pIC50 of O=C(CCCCCNc1c2c(nc3cccc(Cl)c13)CCCC2)NCCc1c[nH]c2ccccc12 : 7.19

Measured pIC50 of O=C(CCCCCCNc1c2c(nc3cc(Cl)cc(Cl)c13)CCCC2)NCCc1c[nH]c2ccccc12 : 8.70

---

Molecular target: Acetylcholinesterase (Homo sapiens, UniProt P22303)
Sequence (P22303 whole entry): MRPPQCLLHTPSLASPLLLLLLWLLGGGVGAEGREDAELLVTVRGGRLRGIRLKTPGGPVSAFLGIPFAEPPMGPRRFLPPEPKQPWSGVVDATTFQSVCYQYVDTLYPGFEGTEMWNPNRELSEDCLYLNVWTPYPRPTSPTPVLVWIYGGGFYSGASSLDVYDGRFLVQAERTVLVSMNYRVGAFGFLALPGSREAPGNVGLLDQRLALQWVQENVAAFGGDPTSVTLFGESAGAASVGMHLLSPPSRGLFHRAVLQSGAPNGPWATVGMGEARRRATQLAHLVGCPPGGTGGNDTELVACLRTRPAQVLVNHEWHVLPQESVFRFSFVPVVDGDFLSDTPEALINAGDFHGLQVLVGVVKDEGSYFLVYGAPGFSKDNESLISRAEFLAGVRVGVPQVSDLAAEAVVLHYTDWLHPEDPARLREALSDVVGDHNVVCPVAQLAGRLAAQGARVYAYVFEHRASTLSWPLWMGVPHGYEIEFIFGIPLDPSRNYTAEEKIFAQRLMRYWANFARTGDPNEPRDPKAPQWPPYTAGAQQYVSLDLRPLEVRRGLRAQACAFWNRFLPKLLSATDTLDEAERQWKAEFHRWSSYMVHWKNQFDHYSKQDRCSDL
Define the label as t when IC50 is strictly less than 0.5 nM and as f in all remaining cases.

| Structure Notation | Category Label |
| --- | --- |
| COc1ccc2[nH]cc(CCNC(=O)CCCCCCNc3c4c(nc5ccccc35)CCCC4)c2c1 | f |
| O=C(CCCCCNc1c2c(nc3ccccc13)CCCC2)NCCc1c[nH]c2ccc(O)cc12 | t |
| O=C(CCCCCCNc1c2c(nc3cc(Cl)cc(Cl)c13)CCCC2)NCCc1c[nH]c2ccccc12 | t |
| O=C(CCCCCNc1c2c(nc3cccc(Cl)c13)CCCC2)NCCc1c[nH]c2ccccc12 | f |
| COc1ccc2[nH]cc(CCNC(=O)CCCCCCNc3c4c(nc5cc(Cl)cc(Cl)c35)CCCC4)c2c1 | t |

Next up:
Threshold test, IC50 < 0.5 nM: O=C(CCCCCCNc1c2c(nc3cc(Cl)ccc13)CCCC2)NCCc1c[nH]c2ccccc12
t
